System: SK-MEL-5 melanoma
assay: NCI-60 one-dose screen, 48 h (100 = growth as untreated, 0 = no growth, -100 = all killed)
condition.description: 10 µM unless noted
Compounds without any hit were thinned out: in the full panel of roughly 83,000, 20% have a hit.
Grouping key: growth. Bins: low range = under 20%, mid range = from 20% up to 80%, high range = 80% and over

## Input Category of C=C1C(=O)O[C@H]2[C@H]1CC/C(COC(=O)NCc1cc[nH]c1)=C\CC[C@@]1(C)O[C@@H]21 , please.
## Output high range

## Input Category of Brc1ccc2[nH]cc(-c3nonc3-c3c[nH]c4ccccc34)c2c1 , please.
## Output mid range

## Input Category of C=C(CNCCc1ccc(O)cc1)[C@@H]1CC[C@]2(CO)CC[C@]3(C)[C@H](CC[C@@H]4[C@@]5(C)CCC(NCCO)C(C)(C)[C@@H]5CC[C@]43C)[C@@H]12 (some centres not stated) , please.
## Output low range

## Input Category of O=C(/C=C/c1ccc(Cl)cc1)c1cccc(Nc2nc(Nc3ccccc3)nc(Nc3ccccc3)n2)c1 , please.
## Output high range

## Input Category of CCNc1nc(-c2ccc(Cl)c(OC)c2)c(-c2ccnc(NCCCNS(=O)(=O)c3ccc(Cl)cc3)n2)s1 , please.
## Output mid range

## Input Category of CCCCCCCCCCCCCCCCCCOc1ccccc1CC(=O)OCC[N+]1(C)CCCC1 , please.
## Output low range

## Input Category of Oc1c(Cl)cc(Cl)cc1/C=N/Nc1nnc(N/N=C/c2cc(Cl)cc(Cl)c2O)c2ccccc12 , please.
## Output low range

## Input Category of Cc1nnc(NC(=O)c2nc(S(=O)(=O)Cc3ccc(F)cc3)ncc2Cl)s1 , please.
## Output high range

## Input Category of COc1ccc(C(=O)Nc2cccc(C3CC(=O)c4c(cc(OC)c(OC)c4OC)O3)c2)cc1 (configuration not stated) , please.
## Output low range

## Input Category of O=C1/C(=C/c2ccc(Cl)cc2)COc2ccc(O)c(O)c21 , please.
## Output mid range

## Input Category of NC(=O)c1c(NC(=O)c2ccccc2)sc2c1CCC(=O)C2 , please.
## Output low range

## Input Category of CC(=O)n1nc(C(=O)OC(C)C)c2cc(C)c(C)cc21 , please.
## Output high range

## Input Category of C=C(C)[C@@H]1CC[C@]2(C(=O)OC)CC[C@]3(C)[C@H](CC[C@@H]4[C@@]5(C)C/C(=C/NC(N)=S)C(=O)C(C)(C)[C@@H]5CC[C@]43C)[C@@H]12 , please.
## Output high range

## Input Category of COC(=O)[C@]1(C)CCC[C@]2(C)[C@H]3C[C@H]4C(C(C)C)=C[C@]3(CC[C@H]21)[C@H]1[C@@H]4[C@@H](OCCC#N)CC[C@@H]1OCCC#N , please.
## Output mid range

## Input Category of O=S(=O)(NCCNc1nccc(-c2c(-c3cccc(F)c3)nc3occn23)n1)c1ccc(Br)cc1 , please.
## Output mid range

## Input Category of Cc1ccc(C2=Nc3c(N)ncnc3NC(c3ccc4c(c3)OCO4)C2)cc1 (configuration not stated) , please.
## Output mid range

---

Tested on: SNB-75 CNS
assay: NCI-60 one-dose screen, 48 h
condition.description: 10 µM unless noted
Compounds without any hit were thinned out: in the full panel of roughly 83,000, 20% have a hit. Activity calls are given as the source filed them. Rule for the calls: active = growth percent below 10; inactive = the rest.
In this exercise, the only acceptable responses are active, inactive

## Input Recorded test outcome, item CCOC(=O)c1cn2ncnc(Oc3ccc(NC(=O)NC4CCCCC4)c(Cl)c3)c2c1C
## Output active

## Input Recorded test outcome, item O=[N+]([O-])/C(=C/C=C/c1ccccc1)c1ccccc1
## Output inactive

## Input Recorded test outcome, item COc1ccc2[nH]cc(-c3nc(-c4c[nH]c5ccncc45)cs3)c2c1
## Output inactive

## Input Recorded test outcome, item CCn1c(SCC(=O)c2ccc(Br)cc2)nnc1-c1ccncc1
## Output inactive

## Input Recorded test outcome, item C1=C(N2CCCC2)CCC1
## Output inactive

## Input Recorded test outcome, item CC(C)=NNc1ccccn1
## Output inactive

## Input Recorded test outcome, item COc1ccc(-c2nc3c(c(-c4ccccc4)nn3-c3ccccc3)c(-c3ccc(N4CCN(C)CC4)cc3)c2C#N)cc1
## Output inactive

## Input Recorded test outcome, item COc1ccc2c(O)c(/C=C3\N=Nc4ncccc43)oc2c1C[C@H]1CCNC[C@H]1F
## Output active

## Input Recorded test outcome, item CCN1C(=O)N(CC)C2C1NN=c1s/c(=C\c3ccc(Cl)cc3Cl)c(=O)n12 (configuration not stated)
## Output inactive

## Input Recorded test outcome, item Cn1ccnc1C(=O)C(=O)Nc1ccc(CC(=O)Nc2ccccc2)cc1
## Output inactive

## Input Recorded test outcome, item CNC(=O)c1c(NC(=O)c2ccc(C(F)(F)F)cc2)sc2c1CCC(=O)C2
## Output active

## Input Recorded test outcome, item CCCCN1C(=O)/C(=c2\sc3n(c2=O)C2C(NN=3)N(CC)C(=O)N2CC)c2ccccc21 (configuration not stated)
## Output active

## Input Recorded test outcome, item Cn1c(=O)c2c(nc(NC3=NS(=O)(=O)c4ccccc43)n2CC(=O)N2CCc3ccccc32)n(C)c1=O
## Output inactive

## Input Recorded test outcome, item O=C(Nc1ncc(Cc2ccc(Cl)c(C(F)(F)F)c2)s1)c1ccc2nnsc2c1
## Output inactive

## Input Recorded test outcome, item N=C(N)c1ccc(-c2ccc(-c3ccc(Cl)cc3)s2)nc1
## Output inactive

## Input Recorded test outcome, item CCCCCCCCCCCCCCCC(N)c1ccccc1 (configuration not stated)
## Output inactive

## Input Recorded test outcome, item CCCC(=O)NC(c1ccc2c(c1)OCO2)c1ccc2cccnc2c1O (configuration not stated)
## Output inactive

## Input Recorded test outcome, item O=C(Cn1cc(CN2C(=O)c3ccccc3S2(=O)=O)nn1)Nc1nc2ccccc2s1
## Output inactive

## Input Recorded test outcome, item CCCc1cc(NC)nc(S(=O)(=O)CC)n1
## Output inactive

## Input Recorded test outcome, item O=C(Cn1c(=O)sc2ccccc21)NNS(=O)(=O)c1ccccc1[N+](=O)[O-]
## Output inactive

## Input Recorded test outcome, item O=C1NC(=O)c2c1c1c3ccccc3ccc1c1[nH]c3ccc(Br)cc3c21
## Output inactive

## Input Recorded test outcome, item COC(=O)c1cc(-c2ccccc2)[nH]c1N/N=C/c1c(Cl)cccc1Cl
## Output active

---

Test system: PC-3 prostate
assay: NCI-60 one-dose screen, 48 h (100 = growth as untreated, 0 = no growth, -100 = all killed)
condition.description: 10 µM unless noted
This is part of a sample that, as a whole, favours compounds with a hit. Of some 83,000 tested, about 20% had one in any assay.
endpoint.label: growth (%)
Write the answer as a number in %, unit excluded.

## Input Please indicate recorded growth of CCCCC[C@@H]1Cc2cc(O)c(C(=O)O)c3c2[C@H](C[C@]2(OC[C@@H](CC(=O)[C@@](C)(CC)C(=O)OC)[C@@H]2C)O3)O1 measured with PC-3 prostate.
## Output 106

## Input Please indicate recorded growth of CCN(CC)CCSc1nc(-c2ccccc2)c(C#N)c(=O)[nH]1 measured with PC-3 prostate.
## Output 116

## Input Please indicate recorded growth of N#CC1=C(N)Oc2c(sc3c(Br)cccc23)C1c1ccc(F)cc1 (stereo not given) measured with PC-3 prostate.
## Output 23.6

## Input Please indicate recorded growth of O=C(Nc1nc2ccc(F)cc2s1)c1cccnc1Nc1ccc(Cl)cc1 measured with PC-3 prostate.
## Output 14

## Input Please indicate recorded growth of O=C1c2c(c3c4ccccc4[nH]c3c3ccc4ccccc4c23)C(=O)N1CCN1CCCCC1 measured with PC-3 prostate.
## Output 53.3

## Input Please indicate recorded growth of O=C(O)/C(=C\c1ccc(Cl)cc1)c1ccc(Cl)cc1 measured with PC-3 prostate.
## Output 89.8

## Input Please indicate recorded growth of Cc1noc(C)c1C(=O)OCc1coc2ccccc2c1=O measured with PC-3 prostate.
## Output 70.1

## Input Please indicate recorded growth of O=C(/C=C(/C=C/c1cccc2[nH]ccc12)OB(F)F)/C=C/c1cccc2[nH]ccc12 measured with PC-3 prostate.
## Output -42.5

## Input Please indicate recorded growth of CCN(CC)C(=S)SC(SC(=S)N(CC)CC)C(=O)c1nnn(-c2ccc([N+](=O)[O-])cc2)c1C measured with PC-3 prostate.
## Output 78.1

## Input Please indicate recorded growth of O=C1COCCN1c1ccc(Nc2nc(Cl)nc(OCc3cn(Cc4ccccc4)nn3)n2)cc1 measured with PC-3 prostate.
## Output 89.4

## Input Please indicate recorded growth of CC(=O)OCc1nc(C#N)c(N(C)C)o1 measured with PC-3 prostate.
## Output 104

## Input Please indicate recorded growth of O=C(O)CNC1=C(Cl)C(=O)c2ccccc2C1=O measured with PC-3 prostate.
## Output 77.7

## Input Please indicate recorded growth of O=C1NC(=O)c2c1c1c3ccccc3ccc1c1[nH]c3ccc(Br)cc3c21 measured with PC-3 prostate.
## Output 3.55

## Input Please indicate recorded growth of CN(C)C1CCN(Cc2ccc(NC(=O)c3cncc(C#Cc4cnc(N)c5ncccc45)c3)cc2C(F)(F)F)CC1 measured with PC-3 prostate.
## Output 80.6

## Input Please indicate recorded growth of COc1ccc(NC(=O)c2sc3nc(C)c(C(=O)/C=C/c4cccc(OC)c4)cc3c2N)cc1 measured with PC-3 prostate.
## Output 55.2

## Input Please indicate recorded growth of Cn1cc(-c2csc(-c3c[nH]c4ccc(Br)cc34)n2)c2cnccc21 measured with PC-3 prostate.
## Output -79.5

## Input Please indicate recorded growth of CN(C)CC(=O)Nc1ccc2ncnc(Nc3ccc(Oc4cccc(C(F)(F)F)c4)c(Cl)c3)c2c1 measured with PC-3 prostate.
## Output 61.7

## Input Please indicate recorded growth of COC1=CC(c2ccc[nH]2)=N/C1=C\c1[nH]c(C)c(C(=O)OCc2ccccc2)c1C measured with PC-3 prostate.
## Output 10.4

## Input Please indicate recorded growth of C=CCn1cc(-c2nc3ccccc3s2)c2cc(-c3ccc4c5c(cccc35)C(=O)N(N)C4=O)ccc21 measured with PC-3 prostate.
## Output 88.2

## Input Please indicate recorded growth of O=C1Nc2ccc(Br)cc2/C1=N/c1n[nH]c(=S)s1 measured with PC-3 prostate.
## Output 95
